Below, each entry is listed alongside its reported melting point.
Where a name gives a salt, the structure may show the parent alone.

Reference set, count: 3
Oc1cccc2c1O[C@H]1CN(C[C@H]3C[C@H]3c3ccccc3)[C@H]3CCC[C@@]21C3 (as salt: HCl) [(+)-19] ... 183.1 to 187.7 °C
Oc1cccc2c1O[C@@H]1CN(C[C@H]3C[C@@H]3c3ccccc3)[C@@H]3CCC[C@]21C3 (as salt: HCl) [(+)-16] ... 246.6 to 251.6 °C
Oc1cccc2c1O[C@@H]1CN(C[C@@H]3C[C@@H]3c3ccccc3)[C@@H]3CCC[C@]21C3 (as salt: HBr) [(-)-19] ... 193.3 to 198.3 °C

Request the reported melting point associated with Oc1cccc2c1O[C@@H]1CN(C[C@@H]3C[C@H]3c3ccccc3)[C@@H]3CCC[C@]21C3 (as salt: HCl) [(-)-17]
208.2 to 213.2 °C

Request the reported melting point associated with Oc1cccc2c1O[C@H]1CN(C[C@@H]3C[C@@H]3c3ccccc3)[C@H]3CCC[C@@]21C3 (as salt: HCl) [(-)-18]
193.9 to 198.5 °C

Request the reported melting point associated with Oc1cccc2c1O[C@H]1CN(C[C@H]3C[C@@H]3c3ccccc3)[C@H]3CCC[C@@]21C3 (as salt: HCl) [(+)-17]
187.2 to 192.2 °C

Request the reported melting point associated with Oc1cccc2c1O[C@H]1CN(C[C@@H]3C[C@H]3c3ccccc3)[C@H]3CCC[C@@]21C3 (as salt: HCl) [(-)-16]
252.7 to 256.5 °C

Request the reported melting point associated with Oc1cccc2c1O[C@@H]1CN(C[C@H]3C[C@H]3c3ccccc3)[C@@H]3CCC[C@]21C3 (as salt: HCl) [(+)-18]
204.4 to 208.5 °C

* * *

Below, each entry is listed alongside its reported pIC50.
# Assayed system: human κ-opioid receptor (OPRK1) (Homo sapiens)
# Sequence (P41145 whole entry): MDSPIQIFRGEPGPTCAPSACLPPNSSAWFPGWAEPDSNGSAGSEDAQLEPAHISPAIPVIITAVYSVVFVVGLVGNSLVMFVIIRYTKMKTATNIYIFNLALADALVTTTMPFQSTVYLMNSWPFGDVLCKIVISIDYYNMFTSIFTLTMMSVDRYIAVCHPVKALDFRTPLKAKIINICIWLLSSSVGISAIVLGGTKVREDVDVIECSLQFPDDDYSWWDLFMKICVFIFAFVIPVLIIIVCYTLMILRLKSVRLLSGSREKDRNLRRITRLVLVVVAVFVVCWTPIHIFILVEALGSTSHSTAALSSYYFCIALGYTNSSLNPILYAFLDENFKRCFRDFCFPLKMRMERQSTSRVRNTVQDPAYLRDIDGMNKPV
# Protocol: Forskolin-induced cAMP accumulation assay, KOR antagonist mode
# pIC50 is unitless: minus log10 of the molar concentration; print number only

Oc1cccc2c1O[C@H]1CN(CCc3ccccc3)[C@H]3CCC[C@@]21C3 [(-)-1] ... 6.99

Attention now shifts to the item below.
Give the reported pIC50 for Oc1cccc2c1O[C@H]1CN(C[C@H]3C[C@@H]3c3ccccc3)[C@H]3CCC[C@@]21C3 [(+)-17] (system: human κ-opioid receptor (OPRK1) (Homo sapiens)).
6.69

* * *

# Protocol: Microsomal metabolic stability, mouse liver microsomes
# Measurement conditions: MLM 0.5, with NADPH
Below, each entry is listed alongside its reported Remaining (T = 60 min).
Give a bare numeral; the unit % is implied.

Reference set, count: 3
O=C1CC[C@@]2(O)[C@H]3Cc4ccc(O)c5c4[C@@]2(CCN3CC2CC2)[C@H]1O5 [Naltrexone] ... 48.1
O=C(O)Cc1ccccc1Nc1c(Cl)cccc1Cl [Diclofenac] ... 33.5
Oc1cccc2c1O[C@H]1CN(C[C@H]3C[C@@H]3c3ccccc3)[C@H]3CCC[C@@]21C3 [(+)-17] ... 0.2

Attention now shifts to the item below.
Request the reported Remaining (T = 60 min) associated with C[C@]12CC[C@H]3[C@@H](CCC4=CC(=O)CC[C@@]43C)[C@@H]1CC[C@@H]2O [Testosterone]
0.0
